For each record, write down the corresponding Emax.
- System Name: Peroxisome proliferator-activated receptor delta (Homo sapiens) (UniProt Q03181)
- Sequence (whole entry): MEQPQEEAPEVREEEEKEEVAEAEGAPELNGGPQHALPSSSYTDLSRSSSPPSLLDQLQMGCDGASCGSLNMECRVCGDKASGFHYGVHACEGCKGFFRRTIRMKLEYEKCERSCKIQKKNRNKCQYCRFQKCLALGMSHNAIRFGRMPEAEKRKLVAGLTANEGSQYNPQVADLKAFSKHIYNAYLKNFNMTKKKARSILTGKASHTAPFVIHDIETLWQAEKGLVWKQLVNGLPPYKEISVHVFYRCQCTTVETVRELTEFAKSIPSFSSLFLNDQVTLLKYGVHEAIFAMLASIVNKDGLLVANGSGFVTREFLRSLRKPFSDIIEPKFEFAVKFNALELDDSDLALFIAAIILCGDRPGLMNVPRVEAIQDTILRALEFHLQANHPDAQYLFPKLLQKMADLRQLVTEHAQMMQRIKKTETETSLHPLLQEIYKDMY
- Assay Overview: Agonist activity at PPAR-delta (unknown origin) expressed in HEK293t cells co-transfected with tk-PPRE-luciferase vector at 10 uM after 24 hrs by transactivation assay relative to GW0742
- Format: cell-based
- Condition Info: HEK-293T
The response must be a number in % with no trailing unit.

Prompt: Give the reported Emax for Cc1cccc(OCCOc2ccc3[nH]cc(CC(=O)O)c3c2)c1 (system: Peroxisome proliferator-activated receptor delta (Homo sapiens) (UniProt Q03181)).
Response: 27.9

Prompt: Similarly, O=C(O)Cc1c[nH]c2ccc(OCCCOc3cccc(OCc4ccccc4)c3)cc12 ?
Response: 21.7

Prompt: Similarly, O=C(O)Cc1cn(Cc2ccccc2)c2ccc(OCCCOc3cccc(Oc4ccccc4)c3)cc12 ?
Response: 46.3

Prompt: Similarly, Cc1ccc(COc2ccccc2OCCCOc2ccc3[nH]cc(CC(=O)O)c3c2)cc1 ?
Response: 35.2

Prompt: Similarly, O=C(O)Cc1cn(Cc2ccccc2)c2cc(OCCCOc3cccc(OCc4ccc(Cl)cc4)c3)ccc12 ?
Response: 84.8

Prompt: Similarly, O=C(O)Cc1c[nH]c2ccc(OCCOc3cccc(OCc4ccc(C(F)(F)F)cc4)c3)cc12 ?
Response: 83

Prompt: Similarly, O=C(O)Cc1cn(Cc2ccc(F)cc2)c2ccc(OCCCOc3cccc(OCc4ccc(Cl)cc4)c3)cc12 ?
Response: 133

Prompt: Similarly, O=C(O)Cc1c[nH]c2cc(OCCCOc3cccc(OCc4ccc(Cl)cc4)c3)ccc12 ?
Response: 32.8

Prompt: Similarly, Cc1ccc(COc2ccc(OCCCOc3ccc4c(c3)c(CC(=O)O)cn4Cc3ccccc3)cc2)cc1 ?
Response: 93.6

###

- System Name: Peroxisome proliferator-activated receptor alpha (Homo sapiens) (UniProt Q07869)
- Sequence (whole entry): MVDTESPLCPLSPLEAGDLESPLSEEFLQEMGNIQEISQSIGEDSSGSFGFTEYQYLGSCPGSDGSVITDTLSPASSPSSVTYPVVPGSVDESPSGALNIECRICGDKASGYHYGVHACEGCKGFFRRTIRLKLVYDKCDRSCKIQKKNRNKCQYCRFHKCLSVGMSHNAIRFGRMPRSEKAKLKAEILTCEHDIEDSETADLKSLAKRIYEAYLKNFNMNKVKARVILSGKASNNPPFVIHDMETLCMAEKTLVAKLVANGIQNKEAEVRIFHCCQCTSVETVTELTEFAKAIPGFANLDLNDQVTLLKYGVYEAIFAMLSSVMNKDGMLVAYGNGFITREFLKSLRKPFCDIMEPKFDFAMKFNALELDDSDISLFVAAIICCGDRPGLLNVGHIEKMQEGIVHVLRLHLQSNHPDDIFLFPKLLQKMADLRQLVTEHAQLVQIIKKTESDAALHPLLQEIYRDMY
- Assay Overview: Agonist activity at PPAR-alpha (unknown origin) expressed in CV-1 cells co-transfected with tk-PPRE-luciferase vector at 10 uM after 24 hrs by transactivation assay relative to GW7647
- Format: cell-based
Observation Type: Emax (%)
The response must be a number in % with no trailing unit.

Prompt: Looking for the measured Emax of O=C(O)Cc1cn(Cc2ccccc2)c2ccc(OCCCOc3cccc(OCc4ccc(F)cc4)c3)cc12 , can you help?
Response: 16.5

Prompt: Similarly, Cc1ccc(COc2ccccc2OCCCOc2ccc3c(c2)c(CC(=O)O)cn3Cc2ccccc2)cc1 ?
Response: 26.7

Prompt: Similarly, O=C(O)Cc1cn(Cc2ccccc2)c2ccc(OCCCOc3cccc(Oc4ccc(C(F)(F)F)cc4)c3)cc12 ?
Response: 25.9

Prompt: Similarly, Cc1ccc(COc2cccc(OCCCOc3ccc4c(c3)c(CC(=O)O)cn4Cc3ccccc3)c2)cc1 ?
Response: 31.4

Prompt: Similarly, O=C(O)Cc1cn(Cc2ccccc2)c2ccc(OCCCOc3cccc(OCc4ccccc4)c3)cc12 ?
Response: 30.4

###

For each record, write down the corresponding Emax.
- System Name: Peroxisome proliferator-activated receptor delta (Homo sapiens)
- Assay Overview: Agonist activity at PPAR-delta (unknown origin) expressed in HEK293t cells co-transfected with tk-PPRE-luciferase vector at 10 uM after 24 hrs by transactivation assay relative to GW0742
- Type: cell-based
- Condition Info: HEK-293T
The response must be a number in % with no trailing unit.

Prompt: Looking for the measured Emax of Cc1ccc(COc2cccc(OCCCOc3ccc4c(CC(=O)O)cn(Cc5ccccc5)c4c3)c2)cc1 , can you help?
Response: 90.2

Prompt: Similarly, O=C(O)Cc1cn(Cc2ccccc2)c2ccc(OCCCOc3ccccc3OCc3ccc(Cl)cc3)cc12 ?
Response: 74.9

Prompt: Similarly, O=C(O)Cc1c[nH]c2ccc(OCCCOc3cccc(OCc4ccc(Cl)cc4)c3)cc12 ?
Response: 63.7

Prompt: Similarly, Cc1ccc(Oc2cccc(OCCCOc3ccc4c(c3)c(CC(=O)O)cn4Cc3ccccc3)c2)cc1 ?
Response: 69.1

Prompt: Similarly, O=C(O)Cc1cn(Cc2ccccc2)c2ccc(OCCCOc3cccc(OCc4ccc(Cl)cc4)c3)cc12 ?
Response: 82

Prompt: Similarly, O=C(O)Cc1c[nH]c2ccc(OCCOc3cccc(Cl)c3)cc12 ?
Response: 16.2

Prompt: Similarly, Cc1ccc(COc2cccc(OCCCOc3ccc4c(CC(=O)O)c[nH]c4c3)c2)cc1 ?
Response: 37.2

Prompt: Similarly, O=C(O)Cc1cn(Cc2ccccc2)c2ccc(OCCCOc3ccc(OCc4ccc(Cl)cc4)cc3)cc12 ?
Response: 94.7

Prompt: Similarly, O=C(O)Cc1c[nH]c2ccc(OCCCOc3cccc(OCc4ccc(Cl)cc4Cl)c3)cc12 ?
Response: 85.3

###

- System Name: Peroxisome proliferator-activated receptor alpha (Homo sapiens)
- Sequence (whole entry): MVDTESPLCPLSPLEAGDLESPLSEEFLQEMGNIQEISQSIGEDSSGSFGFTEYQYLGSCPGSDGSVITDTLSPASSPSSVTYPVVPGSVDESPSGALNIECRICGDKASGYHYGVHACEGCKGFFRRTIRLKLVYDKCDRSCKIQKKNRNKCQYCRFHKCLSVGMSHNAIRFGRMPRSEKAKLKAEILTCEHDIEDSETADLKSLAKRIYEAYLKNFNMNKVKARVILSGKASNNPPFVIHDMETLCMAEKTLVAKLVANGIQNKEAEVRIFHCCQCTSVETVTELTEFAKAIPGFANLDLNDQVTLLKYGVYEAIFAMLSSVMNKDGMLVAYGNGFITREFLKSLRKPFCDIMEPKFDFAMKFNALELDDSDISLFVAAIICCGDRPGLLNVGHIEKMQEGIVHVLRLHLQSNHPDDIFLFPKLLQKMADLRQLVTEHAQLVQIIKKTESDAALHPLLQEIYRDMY
- Assay Overview: Agonist activity at PPAR-alpha (unknown origin) expressed in CV-1 cells co-transfected with tk-PPRE-luciferase vector at 10 uM after 24 hrs by transactivation assay relative to GW7647
- Assay type: cell-based
Observation Type: Emax (%)
The response must be a number in % with no trailing unit.

Prompt: Looking for the measured Emax of COc1ccc(Oc2cccc(OCCCOc3ccc4c(c3)c(CC(=O)O)cn4Cc3ccccc3)c2)cc1 , can you help?
Response: 22.3

Prompt: Similarly, O=C(O)Cc1cn(Cc2ccccc2)c2cc(OCCCOc3cccc(OCc4ccc(Cl)cc4)c3)ccc12 ?
Response: 34.8

Prompt: Similarly, Cc1ccc(Oc2cccc(OCCCOc3ccc4c(c3)c(CC(=O)O)cn4Cc3ccccc3)c2)cc1 ?
Response: 33.3

Prompt: Similarly, C=CCn1cc(CC(=O)O)c2cc(OCCCOc3cccc(OCc4ccc(Cl)cc4)c3)ccc21 ?
Response: 35.8

Prompt: Similarly, O=C(O)Cc1cn(Cc2ccc(F)cc2)c2ccc(OCCCOc3cccc(OCc4ccc(Cl)cc4)c3)cc12 ?
Response: 34.3

Prompt: Similarly, O=C(O)Cc1c[nH]c2ccc(OCCCOc3cccc(OCc4ccc(F)cc4)c3)cc12 ?
Response: 25.8

Prompt: Similarly, CC(C)=CCn1cc(CC(=O)O)c2cc(OCCCOc3cccc(OCc4ccc(Cl)cc4)c3)ccc21 ?
Response: 37.9

Prompt: Similarly, O=C(O)Cc1cn(Cc2ccccc2)c2ccc(OCCOc3cccc(OCc4ccc(C(F)(F)F)cc4)c3)cc12 ?
Response: 23.4

Prompt: Similarly, Cc1ccc(COc2cccc(OCCOc3ccc4c(c3)c(CC(=O)O)cn4Cc3ccccc3)c2)cc1 ?
Response: 38.5
